All figures here come from patent US9067935B2.

Biological target: canine TRPM8 (Canis lupus familiaris, UniProt Q1A7N1)
Sequence (Q1A7N1 1-1104): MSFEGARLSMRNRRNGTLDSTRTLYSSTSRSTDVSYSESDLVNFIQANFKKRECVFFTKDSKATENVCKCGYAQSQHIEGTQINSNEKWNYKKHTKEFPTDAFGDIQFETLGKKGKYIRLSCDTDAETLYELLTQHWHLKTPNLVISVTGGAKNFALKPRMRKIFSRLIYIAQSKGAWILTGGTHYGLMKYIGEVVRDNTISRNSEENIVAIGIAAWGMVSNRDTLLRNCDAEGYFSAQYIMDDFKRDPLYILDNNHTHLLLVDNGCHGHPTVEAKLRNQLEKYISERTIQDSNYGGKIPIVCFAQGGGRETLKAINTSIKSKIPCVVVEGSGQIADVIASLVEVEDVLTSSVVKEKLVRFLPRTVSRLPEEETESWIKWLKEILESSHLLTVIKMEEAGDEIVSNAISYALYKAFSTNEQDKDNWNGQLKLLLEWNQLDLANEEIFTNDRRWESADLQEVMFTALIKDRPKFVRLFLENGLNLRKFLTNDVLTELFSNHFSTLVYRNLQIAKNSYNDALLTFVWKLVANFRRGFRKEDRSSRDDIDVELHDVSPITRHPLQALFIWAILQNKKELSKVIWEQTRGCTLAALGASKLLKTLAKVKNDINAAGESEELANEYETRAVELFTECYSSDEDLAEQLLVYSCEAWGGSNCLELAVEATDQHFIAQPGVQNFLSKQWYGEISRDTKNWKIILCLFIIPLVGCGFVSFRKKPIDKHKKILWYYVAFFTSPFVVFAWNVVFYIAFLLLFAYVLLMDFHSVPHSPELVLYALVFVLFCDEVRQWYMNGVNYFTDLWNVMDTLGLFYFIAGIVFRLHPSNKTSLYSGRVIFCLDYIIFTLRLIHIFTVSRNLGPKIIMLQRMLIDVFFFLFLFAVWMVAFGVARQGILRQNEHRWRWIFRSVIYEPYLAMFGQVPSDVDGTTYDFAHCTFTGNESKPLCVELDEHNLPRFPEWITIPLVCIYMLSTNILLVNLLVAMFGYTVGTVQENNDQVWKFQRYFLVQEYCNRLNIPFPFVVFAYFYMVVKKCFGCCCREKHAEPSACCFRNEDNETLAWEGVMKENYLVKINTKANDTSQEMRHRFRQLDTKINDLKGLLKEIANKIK
Assay: In Vitro Canine TRPM8 Functional Assay (intracellular Ca2+ fluorescence, icilin challenge)
Conditions: HEK293 cells stably expressing canine TRPM8; icilin at ~80% maximal response
OBSERVED_PROPERTY: IC50 (nM)

// worked examples, IC50 included
{"CHEMICAL_STRING": "CCc1c(N(Cc2ccc(OC(F)(F)F)cc2)S(=O)(=O)c2ccccc2)nc2c(C(F)(F)F)cccn12", "U": "nM", "IC50": 96.6}
{"CHEMICAL_STRING": "CCc1c(N(Cc2ccc(OC(F)(F)F)cc2)S(=O)(=O)c2ccc(-n3cccn3)cc2)nc2ccc(Cl)cn12", "U": "nM", "IC50": 25}

a. O=S(=O)(c1ccc(N2CCOCC2)nc1)N(Cc1ccc(OC(F)(F)F)cc1)c1nc2ccccn2c1Cl
b. O=S(=O)(c1ccc(N2CCOCC2)nc1)N(Cc1ccc(OC(F)(F)F)cc1)c1nc2ccc(Cl)cn2c1Cl
Field: lower IC50 | Options: a / b Write down the label attached to your selection.
a
